The origin of these recorded values is ChEMBL document CHEMBL4052641.

- assay-target: Xanthine dehydrogenase/oxidase (Bos taurus, UniProt P80457)
- Sequence (P80457 whole entry): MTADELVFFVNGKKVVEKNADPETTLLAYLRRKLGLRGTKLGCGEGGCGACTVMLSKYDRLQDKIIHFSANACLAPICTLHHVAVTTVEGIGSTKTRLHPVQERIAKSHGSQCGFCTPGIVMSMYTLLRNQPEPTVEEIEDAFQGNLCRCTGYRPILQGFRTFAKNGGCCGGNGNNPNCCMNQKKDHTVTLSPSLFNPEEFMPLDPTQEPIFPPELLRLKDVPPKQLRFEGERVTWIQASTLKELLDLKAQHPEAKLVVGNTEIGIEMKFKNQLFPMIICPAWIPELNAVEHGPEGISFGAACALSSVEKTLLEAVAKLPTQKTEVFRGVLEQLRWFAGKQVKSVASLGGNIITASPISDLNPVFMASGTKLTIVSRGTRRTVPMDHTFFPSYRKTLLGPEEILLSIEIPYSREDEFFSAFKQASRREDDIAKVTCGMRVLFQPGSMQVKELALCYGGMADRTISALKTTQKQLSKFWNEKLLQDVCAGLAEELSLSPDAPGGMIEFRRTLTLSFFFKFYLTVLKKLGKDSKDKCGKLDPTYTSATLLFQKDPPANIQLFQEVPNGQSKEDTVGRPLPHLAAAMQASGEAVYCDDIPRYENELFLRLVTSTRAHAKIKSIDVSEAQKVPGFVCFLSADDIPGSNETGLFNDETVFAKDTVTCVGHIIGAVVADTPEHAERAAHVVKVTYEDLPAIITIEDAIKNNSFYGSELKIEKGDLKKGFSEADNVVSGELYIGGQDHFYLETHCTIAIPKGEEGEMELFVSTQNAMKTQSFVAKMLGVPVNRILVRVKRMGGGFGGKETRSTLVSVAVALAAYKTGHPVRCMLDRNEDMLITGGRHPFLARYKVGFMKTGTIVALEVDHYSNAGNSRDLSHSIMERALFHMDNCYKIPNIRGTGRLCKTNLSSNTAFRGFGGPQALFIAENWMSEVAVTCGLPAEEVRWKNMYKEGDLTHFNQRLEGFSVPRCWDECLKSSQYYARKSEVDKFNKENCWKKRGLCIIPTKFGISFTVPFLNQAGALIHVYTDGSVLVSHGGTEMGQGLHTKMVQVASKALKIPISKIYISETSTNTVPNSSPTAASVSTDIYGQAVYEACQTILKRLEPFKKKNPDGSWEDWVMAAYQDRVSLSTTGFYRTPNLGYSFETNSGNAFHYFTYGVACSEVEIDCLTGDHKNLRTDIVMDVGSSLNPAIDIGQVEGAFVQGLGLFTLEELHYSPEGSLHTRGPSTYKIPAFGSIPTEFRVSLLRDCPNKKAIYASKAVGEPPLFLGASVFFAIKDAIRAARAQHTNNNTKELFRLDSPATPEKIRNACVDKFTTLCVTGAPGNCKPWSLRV
- measurement-notes: Potency index, ratio of allopurinol IC50 to compound IC50 for bovine milk xanthine oxidase
- stated-conditions: cattle
As shown below, each of these compounds has a reported Ratio IC50 value.
Please give the numeric answer without any surrounding text.

// below: answered compounds
- smiles-str: "O=c1nc(-c2ccncc2)cc(-c2cccs2)[nH]1"
  Ratio IC50: 1.9
- smiles-str: "O=c1nc(-c2ccncc2)cc(-c2ccco2)[nH]1"
  Ratio IC50: 1.69
- smiles-str: "O=c1c(-c2ccc(O)cc2)coc2cc(O)cc(O)c12"
  Ratio IC50: 2.04

// below: Ratio IC50 requested for another compound
*Q* What measured Ratio IC50 goes with O=c1nc(-c2ccc(Cl)cc2)cc(-c2ccc(Cl)cc2)[nH]1 ?
*A* 1.02
